# TGT: Amyloglucosidase (Aspergillus niger)
# Construct: purchased Sigma-Aldrich Chemical Co
# Sequence (P69328 25-640): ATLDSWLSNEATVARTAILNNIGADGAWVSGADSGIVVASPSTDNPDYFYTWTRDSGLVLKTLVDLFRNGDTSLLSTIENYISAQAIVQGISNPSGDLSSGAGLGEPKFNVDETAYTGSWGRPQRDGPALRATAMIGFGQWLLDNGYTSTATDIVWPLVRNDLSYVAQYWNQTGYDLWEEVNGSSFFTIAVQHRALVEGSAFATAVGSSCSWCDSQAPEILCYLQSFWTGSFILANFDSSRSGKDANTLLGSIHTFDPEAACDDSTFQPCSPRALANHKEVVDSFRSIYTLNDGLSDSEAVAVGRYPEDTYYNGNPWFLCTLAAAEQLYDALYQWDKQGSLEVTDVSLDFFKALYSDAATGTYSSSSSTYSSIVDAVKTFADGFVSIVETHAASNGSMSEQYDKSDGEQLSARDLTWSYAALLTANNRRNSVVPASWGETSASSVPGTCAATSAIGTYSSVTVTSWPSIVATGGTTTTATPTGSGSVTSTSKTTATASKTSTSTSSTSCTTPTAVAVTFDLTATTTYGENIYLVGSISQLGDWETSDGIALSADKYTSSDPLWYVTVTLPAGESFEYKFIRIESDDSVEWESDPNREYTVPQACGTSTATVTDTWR
# PROTOCOL: glycosidase inhibition assay, A. niger amyloglucosidase
# Format: biochemical
# COND: at 100 μM
MEASURED_METRIC: inhibition at 100 µM (%)
Could you give me the number in %? Just the number is fine.

Here are 2 compounds together with their reported answers.
>>> readout_value("OCCC[C@@H](O)CCCCCCCCC[C@@H]1N[C@@H](CO)[C@@H](O)[C@H]1O [ent-3,10-di-epi-3]")
0
>>> readout_value("OCCCC(O)CCCCCCCCCC1NC(CO)C(O)C1O (stereo not drawn) [2,10-di-epi-3]")
6.8

Incoming: // fetch inhibition at 100 µM given entry OCCC[C@@H](O)CCCCCCCCC[C@H]1N[C@@H](CO)[C@@H](O)[C@@H]1O [2-epi-3]
Outgoing: 3.8

Incoming: Give reported inhibition at 100 µM value for OCCC[C@@H](O)CCCCCCCCC[C@@H]1N[C@@H](CO)[C@H](O)[C@H]1O [ent-10’-epi-3]
Outgoing: 6.1

Incoming: Tell me measured inhibition at 100 µM for OCCC[C@H](O)CCCCCCCCC[C@@H]1N[C@@H](CO)[C@H](O)[C@H]1O please.
Outgoing: 0

* * *

# TGT: Amyloglucosidase (Aspergillus niger)
# Construct: purchased Sigma-Aldrich Chemical Co
# PROTOCOL: glycosidase inhibition assay, A. niger amyloglucosidase
# Type: biochemical
# COND: at 100 μM
MEASURED_METRIC: inhibition at 100 µM
Returns: string containing the number followed by the unit.

Examples from the recorded data:
>>> readout_value("OCCC[C@H](O)CCCCCCCCC[C@H]1N[C@H](CO)[C@@H](O)[C@@H]1O [10’-epi-3]")
"36.5%"
>>> readout_value("OCCC[C@@H](O)CCCCCCCCC[C@H]1N[C@H](CO)[C@@H](O)[C@@H]1O [compound 3]")
"3.8%"

# evaluate next
Incoming: Name the recorded inhibition at 100 µM of the compound listed here: OCCC[C@H](O)CCCCCCCCC[C@@H]1N[C@@H](CO)[C@@H](O)[C@H]1O [ent-3-epi-3]
Outgoing: 0%
